B1: PhoQ; a variant is named by its letters at X, in order, P23837 (parent)
chain: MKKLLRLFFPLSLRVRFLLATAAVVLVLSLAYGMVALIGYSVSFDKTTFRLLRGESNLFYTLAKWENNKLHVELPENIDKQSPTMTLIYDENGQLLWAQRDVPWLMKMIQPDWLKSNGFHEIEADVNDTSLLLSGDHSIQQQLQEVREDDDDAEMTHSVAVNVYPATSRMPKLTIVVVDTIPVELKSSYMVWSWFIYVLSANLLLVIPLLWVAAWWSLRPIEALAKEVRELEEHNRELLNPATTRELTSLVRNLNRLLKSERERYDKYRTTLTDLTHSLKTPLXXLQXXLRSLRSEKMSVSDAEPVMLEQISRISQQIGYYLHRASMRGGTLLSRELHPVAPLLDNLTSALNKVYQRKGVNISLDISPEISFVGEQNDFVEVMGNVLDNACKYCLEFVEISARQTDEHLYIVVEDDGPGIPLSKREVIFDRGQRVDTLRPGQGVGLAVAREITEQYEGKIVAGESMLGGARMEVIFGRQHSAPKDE

Variants of: B1
assay_explanation: enrichment ratio after two sorts for PhoP signalling (ratio (wild type AVST 3.29)); higher = more functional
test_context: with PhoP (E. coli)
The full ranking holds about 140,000 sequences; the median of “enrichment ratio after two sorts for PhoP signalling” is about 0, and the highest 2% start at about 11. The full list was thinned out, with the highest values kept by preference.
observable: enrichment ratio

1. WHAF :: ≤ 0.25
2. ACMW :: ≤ 0.25
3. ENWV :: ≤ 0.25

The reported value for `DNNV` in terms of enrichment ratio is ≤ 0.25

Recorded result, `HHMC` , enrichment ratio: ≤ 0.25
